target-entity: human estrogen receptor β (Homo sapiens, UniProt Q92731)
Construct: expressed in transfected cells; host or cells: CHO cells (CHO-ERβ RO LUC), stably co-transfected with rat oxytocin promoter-luciferase reporter
Sequence (Q92731 whole entry): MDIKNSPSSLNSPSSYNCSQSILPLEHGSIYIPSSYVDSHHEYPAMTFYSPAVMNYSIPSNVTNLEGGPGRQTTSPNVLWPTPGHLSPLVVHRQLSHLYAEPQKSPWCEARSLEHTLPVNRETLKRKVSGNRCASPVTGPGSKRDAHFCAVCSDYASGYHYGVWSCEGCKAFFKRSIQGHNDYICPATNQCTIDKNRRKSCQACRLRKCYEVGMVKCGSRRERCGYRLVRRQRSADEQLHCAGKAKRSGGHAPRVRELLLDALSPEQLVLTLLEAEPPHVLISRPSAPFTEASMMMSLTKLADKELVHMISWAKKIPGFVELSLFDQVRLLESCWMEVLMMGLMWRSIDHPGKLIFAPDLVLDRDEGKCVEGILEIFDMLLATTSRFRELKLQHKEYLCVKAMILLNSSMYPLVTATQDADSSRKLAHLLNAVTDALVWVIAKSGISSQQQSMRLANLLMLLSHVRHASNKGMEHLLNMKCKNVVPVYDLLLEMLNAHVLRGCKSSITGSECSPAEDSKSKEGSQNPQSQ
assay-protocol: CHO-ERβ bioassay: luciferase transactivation, estrogenic and anti-estrogenic activity
Format: cell-based
cond: agonist or antagonist in recombinant CHO cells with hERβ, rat oxytocin promoter, luciferase reporter; standard Org 2317 (estradiol)
experimental-readout: ER-β

C=CC[C@H]1C[C@]2(C)[C@@H](O)CC[C@H]2[C@@H]2CCc3cc(O)ccc3[C@@H]12 : agonist
C[C@]12C[C@H](CCC=C3CC3)[C@@H]3c4ccc(O)cc4CC[C@H]3[C@@H]1CC[C@@H]2O : antagonist
C=CCCC[C@H]1C[C@]2(C)[C@@H](O)CC[C@H]2[C@@H]2CCc3cc(O)ccc3[C@@H]12 : antagonist
C=CCC[C@H]1C[C@]2(C)[C@@H](O)CC[C@H]2[C@@H]2CCc3cc(O)ccc3[C@@H]12 : agonist
